experiment: Cmax in mouse at 2.5 mg/kg, iv; format: ADME, organism-based; design: dose 2.5 mg/kg, route intravenous; conditions: in vivo
assay.endpoint: Cmax (ng/mL)
Numbers only, in ng/mL.

Give the reported value of Cmax for this record: CN1CCN(c2cc(-c3ccc(C#N)cc3)nc(N)n2)CC1
570

* * *

Recorded below: Ki, system UniProt Q9QYN8.
Sequence (Q9QYN8 whole entry): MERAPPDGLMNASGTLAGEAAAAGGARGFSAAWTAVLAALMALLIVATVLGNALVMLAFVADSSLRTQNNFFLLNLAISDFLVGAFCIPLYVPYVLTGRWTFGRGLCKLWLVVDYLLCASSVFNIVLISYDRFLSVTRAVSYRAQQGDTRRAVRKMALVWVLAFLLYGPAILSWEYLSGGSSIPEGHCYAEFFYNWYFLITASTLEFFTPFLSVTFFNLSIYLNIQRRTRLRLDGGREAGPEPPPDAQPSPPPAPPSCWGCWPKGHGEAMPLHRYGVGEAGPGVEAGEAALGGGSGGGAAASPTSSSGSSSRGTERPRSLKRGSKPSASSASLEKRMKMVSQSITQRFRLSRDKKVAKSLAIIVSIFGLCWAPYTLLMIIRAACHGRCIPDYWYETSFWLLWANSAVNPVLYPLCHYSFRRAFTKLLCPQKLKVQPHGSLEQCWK
Answers are plain numbers, in nM.

CN1CCN(c2cc(-c3ccc(C#N)cc3)nc(N)n2)CC1 | 245

Give the reported value of Ki for this record: N#Cc1ccc(-c2cc(N3CCNCC3)nc(N)n2)cc1
120

* * *

target: Histamine H4 receptor (Rattus norvegicus) (UniProt Q91ZY1); test: Agonist activity at rat histamine H4 receptor expressed in HEK293 cells coexpressing Gqi5 protein assessed as calcium flux by FLIPR assay relative to histamine; assay type: functional, cell-based
Sequence (Q91ZY1 whole entry): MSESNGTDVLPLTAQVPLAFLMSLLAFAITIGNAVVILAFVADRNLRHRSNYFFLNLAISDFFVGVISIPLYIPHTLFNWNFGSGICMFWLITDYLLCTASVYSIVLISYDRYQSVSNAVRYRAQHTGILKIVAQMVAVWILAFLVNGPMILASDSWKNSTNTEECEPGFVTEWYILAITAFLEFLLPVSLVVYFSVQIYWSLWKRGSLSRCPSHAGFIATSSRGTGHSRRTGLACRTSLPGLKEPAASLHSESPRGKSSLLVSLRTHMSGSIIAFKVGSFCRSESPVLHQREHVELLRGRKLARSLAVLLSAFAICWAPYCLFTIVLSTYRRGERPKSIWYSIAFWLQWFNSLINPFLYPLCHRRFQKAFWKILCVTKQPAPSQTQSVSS
assay.endpoint: Efficacy (%)
Answers are plain numbers, in %.

Before answering, review these 5 worked examples.
CN1CCC(c2cc(C(C)(C)C)nc(N)n2)CC1 | 55
CN1CCN(c2cc(-c3cn(C)cn3)nc(N)n2)CC1 | 91
CN1CCN(c2cc(-c3ccc(Cl)cc3)nc(N)n2)CC1 | 74
Cc1c(-c2ccc(C#N)cc2)nc(N)nc1N1CCN(C)CC1 | 63
COc1ccncc1-c1cc(N2CCN(C)CC2)nc(N)n1 | 76

Hey, can you go through the list below and give me Efficacy for every item?
1. CNc1nc(N2CCN(C)CC2)cc(C(C)(C)C)n1
2. CN(C)CCNc1cc(C(C)(C)C)nc(N)n1
3. CN1CCN(c2cc(-c3cccnc3)nc(N)n2)CC1
4. COc1cccc(OC)c1-c1cc(N2CCN(C)CC2)nc(N)n1
5. CN1CCN(c2ccnc(N)n2)CC1
6. CN1CCN(c2cc(N3CCCCC3)nc(N)n2)CC1
7. CN1CCN(c2cc(-c3cccc(Cl)c3)nc(N)n2)CC1

[46, 39, 70, 81, 87, 73, 50]

* * *

I'd appreciate it if you could supply Efficacy values for the items below.
target: Histamine H4 receptor (Homo sapiens); assay: Agonist activity at human histamine H4 receptor expressed in HEK293 cells coexpressing Gqi5 protein assessed as calcium flux by FLIPR assay relative to histamine; format: functional, cell-based
Sequence (Q9H3N8 whole entry): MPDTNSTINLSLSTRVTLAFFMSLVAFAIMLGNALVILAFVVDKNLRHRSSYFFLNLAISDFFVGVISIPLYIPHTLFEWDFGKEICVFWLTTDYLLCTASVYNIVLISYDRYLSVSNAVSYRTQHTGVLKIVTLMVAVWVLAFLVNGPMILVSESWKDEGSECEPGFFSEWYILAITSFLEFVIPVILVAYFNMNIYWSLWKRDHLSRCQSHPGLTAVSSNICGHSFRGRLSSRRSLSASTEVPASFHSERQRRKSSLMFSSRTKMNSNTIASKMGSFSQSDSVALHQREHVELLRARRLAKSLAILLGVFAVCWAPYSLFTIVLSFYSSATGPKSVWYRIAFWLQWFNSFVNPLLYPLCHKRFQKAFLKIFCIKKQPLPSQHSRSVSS
One number for each entry, in %.

CN1CCN(c2cc(-n3ccnc3)nc(N)n2)CC1 | 31
CN1CCN(c2cc(NCc3ccccc3)nc(N)n2)CC1 | 56
CN1CCN(c2cc(-c3ccc(C#N)cc3)cc(N)n2)CC1 | 56
CN1CCN(c2ccnc(N)n2)CC1 | 42
CN1CCN(c2cc(-c3c[nH]cn3)nc(N)n2)CC1 | 41

# next compound below
Fill in: Efficacy on Histamine H4 receptor (Homo sapiens), entry CN1CCN(c2cc(C(C)(C)C)nc(Cl)n2)CC1
42

* * *

Target chain: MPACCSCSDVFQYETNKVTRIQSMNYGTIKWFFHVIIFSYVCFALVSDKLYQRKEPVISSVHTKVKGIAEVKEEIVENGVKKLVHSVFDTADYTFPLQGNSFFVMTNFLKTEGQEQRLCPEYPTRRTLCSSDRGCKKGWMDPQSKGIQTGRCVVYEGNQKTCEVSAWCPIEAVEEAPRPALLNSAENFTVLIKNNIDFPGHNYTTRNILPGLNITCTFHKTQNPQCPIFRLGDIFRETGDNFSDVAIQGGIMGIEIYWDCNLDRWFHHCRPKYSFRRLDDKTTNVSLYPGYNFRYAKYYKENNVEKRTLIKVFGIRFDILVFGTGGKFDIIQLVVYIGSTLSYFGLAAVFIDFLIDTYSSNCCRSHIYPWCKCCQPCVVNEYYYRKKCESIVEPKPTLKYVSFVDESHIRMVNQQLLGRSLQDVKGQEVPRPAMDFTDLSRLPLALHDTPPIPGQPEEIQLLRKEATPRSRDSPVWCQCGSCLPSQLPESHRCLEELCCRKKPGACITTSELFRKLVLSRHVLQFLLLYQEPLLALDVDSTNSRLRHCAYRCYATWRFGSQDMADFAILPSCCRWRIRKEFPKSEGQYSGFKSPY
pIC50: −log10 of the molar value.
assay.endpoint: pIC50

Give the reported value of pIC50 for this record: CN1CCN(c2cc(-c3ccc(C#N)cc3)nc(N)n2)CC1
< 4.00
